# Tested on: T-cell
# Test summary: IL-2 secretion from T-cells stimulated with anti-CD3 antibody alone (Biological Example 2)
# Assay type: cell-based, human
# Condition details: T-cell; fold change over baseline; 8 μM Cbl-b inhibitor; primary human total T-cells; read-out: IL-2 secretion Anti-CD3 stimulation

>  <Compound>
Cn1cnnc1CC1(c2cccc(N3Cc4c(cccc4C(F)(F)F)C3=O)c2)COC1

>  <fold induction at 8 µM>
0.101 to 0.15

$$$$
>  <Compound>
C[C@H](Cc1nncn1C)c1cccc(N2Cc3c(cc(-c4ccn[nH]4)cc3C(F)(F)F)C2=O)c1

>  <fold induction at 8 µM>
> 0.201

$$$$
>  <Compound>
C[C@H](Sc1nncn1C)c1cccc(NC(=O)c2ccc(C#N)c(C3CC3)n2)c1

>  <fold induction at 8 µM>
0.101 to 0.15

$$$$
>  <Compound>
Cn1cnnc1CC1(c2cccc(NC(=O)c3cc(C4CC4)nc(C(F)(F)F)n3)c2)COC1

>  <fold induction at 8 µM>
> 0.201

$$$$
>  <Compound>
CNC(=O)COc1ccc2cnc(C(=O)Nc3cccc([C@H](C)Sc4nncn4C)c3)cc2c1 [Compound 306a]

>  <fold induction at 8 µM>
< 0.05

$$$$
>  <Compound>
C[C@H](Cc1nncn1C)c1cccc(NC(=O)c2cc(C3CC3)cc(C(F)(F)F)n2)c1

>  <fold induction at 8 µM>
> 0.201

$$$$
>  <Compound>
COc1cc(C(=O)Nc2cccc([C@H](C)Sc3nncn3C)c2)nc(C(F)(F)F)c1

>  <fold induction at 8 µM>
> 0.201

$$$$
>  <Compound>
C[C@H](Sc1nncn1C)c1cccc(N2Cc3c(cccc3C(F)(F)F)C2=O)c1 [Compound 166a]

>  <fold induction at 8 µM>
< 0.05

$$$$
>  <Compound>
Cc1cc(C(=O)Nc2cccc([C@@](C)(F)C(F)(F)c3nncn3C)c2)nc(C2CC2)n1

>  <fold induction at 8 µM>
> 0.201

$$$$

* * *

// values below are reported fold induction at 1.11 µM
# System: primary human total T-cells
# Test summary: T-cell activation assessed by CD69 expression
# Type: cell-based
# Condition details: CD3/CD28 stimulation, CD4 T-cells, 1.11 μM, read-out: % CD69+ (CD4)

>  <Molecule>
C[C@H](Cc1nncn1C)c1cccc(N2Cc3c(ccnc3C3CC3)C2=O)c1 [Compound 257]

>  <Measured on>
primary human total T-cells

>  <fold induction at 1.11 µM>
≤ 1.2

$$$$
>  <Molecule>
C[C@H](Sc1nncn1C)c1cccc(NC(=O)c2cc(C(=O)N3CC[C@H](O)C3)ccn2)c1 [Compound 140]

>  <Measured on>
primary human total T-cells

>  <fold induction at 1.11 µM>
1.4 to 1.6

$$$$
>  <Molecule>
C[C@H](Cc1nncn1C)c1cccc(N2Cc3c(cc(CN4CC[C@](C)(O)C4)cc3C(F)(F)F)C2=O)c1 [Compound 398]

>  <Measured on>
primary human total T-cells

>  <fold induction at 1.11 µM>
1.4 to 1.6

$$$$
>  <Molecule>
Cc1cc(C(=O)Nc2cccc([C@@H](C)Cc3nncn3C)c2)nc(C2CC2)n1 [Compound 325]

>  <Measured on>
primary human total T-cells

>  <fold induction at 1.11 µM>
1.4 to 1.6

$$$$
>  <Molecule>
Cn1cnnc1C(F)(F)[C@](C)(F)c1cccc(N2Cc3c(cc(CN4CC[C@@H](F)C4)cc3C(F)(F)F)C2=O)c1 [Compound 450]

>  <Measured on>
primary human total T-cells

>  <fold induction at 1.11 µM>
1.2 to 1.4

$$$$
>  <Molecule>
Cn1cnnc1C(F)(F)[C@](C)(F)c1cccc(N2Cc3c(cc(C(=O)N4CC[C@H](O)C4)cc3C(F)(F)F)C2=O)c1 [Compound 438]

>  <Measured on>
primary human total T-cells

>  <fold induction at 1.11 µM>
1.2 to 1.4

$$$$
